Heads up, these molecules all have IC50 values measured for OC43-3CL^pro (Human coronavirus OC43 (HCoV-OC43)).
Answers are plain numbers, in µM.

CC(C)(C)NC(=O)C(c1cccnc1)N(C(=O)c1c[nH]cn1)c1ccc(C2CCCCC2)cc1 (stereo not drawn) [Compound 42]: 63.1

Field: IC50. Fill in for each record below.
1. CC(C)(C)c1ccc(N(C(=O)c2c[nH]cn2)C(C(=O)NC2CCCC2)c2cccnc2)cc1 (stereo not drawn) [Compound 47]
2. CC(C)NC(=O)C(c1ccsc1)N(C(=O)Cn1nnc2ccccc21)c1ccc(NC(=O)C2CC2)cc1 (stereo not drawn) [Compound 29]

Out:
1: 7.7; 2: 11.1

Consider the following items and state reported IC50 for each.
1. O=C(Nc1ccc(N(C(=O)Cn2nnc3ccccc32)C(C(=O)NC2CCCC2)c2ccsc2)cc1)C1CC1 (stereo not drawn) [Compound 33]
2. CC(C)C(=O)Nc1ccc(N(C(=O)Cn2nnc3ccccc32)C(C(=O)NCc2cccnc2)c2cccc(F)c2)cc1 (stereo not drawn) [Compound 6]
3. CC(C)(C)CNC(=O)C(c1cccnc1)N(C(=O)c1c[nH]cn1)c1ccc(C(C)(C)C)cc1 (stereo not drawn) [Compound 44]

Out:
[7.3, 10, 15.6]
